biological target: UniProt Q07820; experiment: Inhibition of Mcl-1 by the fluorescence polarisation technique (Method 1 or Method 2); assay type: binding; settings: fluorescence polarisation, Fluorescein labelled ligand; Method 1 (not underlined) or Method 2 (underlined); read-out: IC50 (μM) Mcl-1 FP
Entries whose IC50 is below 0.2 µM take Condition met; entries at or above 0.2 µM take Condition not met.

Would you please look over these solved cases?
INSERT INTO measurements (compound, assay_target, label_value) VALUES
  ('CCc1sc2ncnc(N[C@H](CC3CCCCC3)C(=O)O)c2c1-c1cccc2[nH]ccc12 (single isomer, unassigned) [Example 243]', 'UniProt Q07820', 'Condition met'),
  ('CCc1sc2ncnc(N[C@@H](C(=O)O)c3cccc(-c4ccccc4)c3)c2c1-c1cccc2ccccc12 (single isomer, unassigned) [Example 189]', 'UniProt Q07820', 'Condition not met'),
  ('CCc1sc2ncnc(NC(Cc3ccccc3)C(=O)O)c2c1-c1cccc2ccn(C)c12 (centres unmarked) [Example 83]', 'UniProt Q07820', 'Condition not met'),
  ('CCc1sc2ncnc(NC(Cc3ccccc3)C(=O)O)c2c1-c1cccc2c1c(Cl)cn2CCCN1CCN(C)CC1 (centres unmarked) [Example 241]', 'UniProt Q07820', 'Condition not met'),
  ('CCc1sc2ncnc(NC(Cc3ccccc3)C(=O)O)c2c1-c1cccc2c1c(Cl)cn2CCN1CCCCC1 (centres unmarked) [Example 235]', 'UniProt Q07820', 'Condition not met'),
  ('Cc1c(-c2c(-c3ccsc3)sc3ncnc(NC(Cc4ccccc4CN)C(=O)O)c23)ccc(OCCN2CCOCC2)c1Cl (centres unmarked) [Example 38]', 'UniProt Q07820', 'Condition not met'),
  ('C/C=C\c1sc2ncnc(N[C@H](Cc3ccccc3)C(=O)O)c2c1-c1cccc2ccccc12 [Example 105]', 'UniProt Q07820', 'Condition not met'),
  ('CCc1sc2ncnc(N[C@@H](C(=O)O)c3ccccc3-c3ccccc3)c2c1-c1cccc2ccccc12 (single isomer, unassigned) [Example 188]', 'UniProt Q07820', 'Condition not met'),
  ('CCc1sc2ncnc(NC(Cc3ccccc3)C(=O)O)c2c1-c1cccc(F)c1C (centres unmarked) [Example 70]', 'UniProt Q07820', 'Condition not met'),
  ('CC=Cc1sc2ncnc(NC(Cc3ccccc3)C(=O)O)c2c1-c1cccc2ccccc12 (centres unmarked) [Example 109]', 'UniProt Q07820', 'Condition not met');

Decide: IC50 of COc1ccccc1-c1nccc(COc2ccccc2CC(Nc2ncnc3sc(-c4ccc(F)o4)c(-c4ccc(OCCN5CCN(C)CC5)c(Cl)c4C)c23)C(=O)O)n1 (centres unmarked) [Example 27] strictly below 0.2 µM?
Condition met

Decide: IC50 of O=C(O)[C@@H](Cc1ccccc1)Nc1ncnc2sc(C(F)F)c(-c3cccc4ccccc34)c12 (single isomer, unassigned) [Example 207] strictly below 0.2 µM?
Condition met

* * *

biological target: Mcl-1 protein (Homo sapiens); experiment: Inhibition of Mcl-1 by the fluorescence polarisation technique (Method 1 or Method 2); type: binding; conditions: fluorescence polarisation, Fluorescein labelled ligand; Method 1 (not underlined) or Method 2 (underlined); read-out: IC50 (μM) Mcl-1 FP
Sequence (Q07820 whole entry): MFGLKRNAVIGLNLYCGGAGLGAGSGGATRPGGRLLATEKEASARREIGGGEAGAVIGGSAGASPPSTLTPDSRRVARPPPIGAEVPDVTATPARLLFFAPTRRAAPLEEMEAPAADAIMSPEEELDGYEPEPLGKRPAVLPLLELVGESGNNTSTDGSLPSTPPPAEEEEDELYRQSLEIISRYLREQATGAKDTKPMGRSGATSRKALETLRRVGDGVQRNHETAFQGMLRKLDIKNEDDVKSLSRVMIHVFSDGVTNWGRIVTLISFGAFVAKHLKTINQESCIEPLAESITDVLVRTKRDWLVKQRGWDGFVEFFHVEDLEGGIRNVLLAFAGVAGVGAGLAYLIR
Catalogue of IC50 readings, one per entry.
Value expressed in µM; do not type the unit.

INSERT INTO results (molecule, quantity, endpoint_value) VALUES
  ('CC#Cc1sc2ncnc(NC(Cc3ccccc3OCc3ccnc(N4CCOCC4)n3)C(=O)O)c2c1-c1ccc(OCCN2CCN(C)CC2)c(Cl)c1C (stereo not shown) [Example 43]', 'IC50', 0.006),
  ('CCc1sc2ncnc(NC(Cc3ccccc3)C(=O)O)c2c1-c1cccc2c1c(Cl)cn2CCN1CCOCC1 (stereo not shown) [Example 236]', 'IC50', 13.5),
  ('CCc1sc2ncnc(NC(Cc3ccccc3)C(=O)O)c2c1-c1ccc(OCCN2CCOCC2)c(Cl)c1C (stereo not shown) [Example 61]', 'IC50', 0.036),
  ('CCc1sc2ncnc(NC(Cc3ccccn3)C(=O)O)c2c1-c1cccc2c1c(Cl)cn2CCN1CCN(C)CC1 (stereo not shown) [Example 248]', 'IC50', 2.18),
  ('CCc1sc2ncnc(NC(Cc3ccc(O)cc3)C(=O)O)c2c1-c1cccc2ccccc12 (stereo not shown) [Example 172]', 'IC50', 28.8),
  ('CC(C)c1sc2ncnc(N[C@H](Cc3ccccc3)C(=O)O)c2c1-c1cccc2ccccc12 (single isomer, unassigned) [Example 202]', 'IC50', 0.751);

# input for lookup
Provide IC50 value for the following molecule: CCc1sc2ncnc(NC(Cc3ccccc3)C(=O)O)c2c1-c1cncc2ccccc12 (stereo not shown) [Example 81]
20.2
